Test system: KM12
Experiment: NCI tumour cell line growth inhibition, 48 h
Activity calls are given as the source filed them. Rule as the data show it: active = GI50 up to about 1.1 µM and inactive = higher.
Kindly supply the reported GI50 values for the records listed here.

See these solved cases before continuing.
- Compound: "COC(=O)C1Cc2ccc(O)c(O)c2CN1 (stereo not given)"
  Assay system: "KM12"
  GI50: "69.3 µM (inactive)"
- Compound: "OC(C/C=N/Nc1ccccc1)(C(F)(F)Cl)C(F)(F)Cl"
  Assay system: "KM12"
  GI50: "> 10 µM (inactive)"
- Compound: "Cc1n[nH]c(=O)n1/N=C/c1c[nH]c2ccccc12"
  Assay system: "KM12"
  GI50: "> 100 µM (inactive)"
- Compound: "CN(C)CC1CC/C(=C\\c2ccc3c(c2)OCO3)C1=O (stereo not given)"
  Assay system: "KM12"
  GI50: "6.79 µM (inactive)"
- Compound: "O=C(/C=C/c1ccc([N+](=O)[O-])o1)N1CCN(Cc2ccccc2)CC1"
  Assay system: "KM12"
  GI50: "12.1 µM (inactive)"
- Compound: "CC(C)CCC[C@@H](C)[C@H]1CC[C@H]2[C@@H]3CC=C4C[C@@H](OC(=O)c5cccc6c(=O)c7ccccc7[nH]c56)CC[C@]4(C)[C@H]3CC[C@]12C"
  Assay system: "KM12"
  GI50: "> 75 µM (inactive)"
- Compound: "CC1=C(CO)C(=O)OC(C(C)C2CCC3C4CC5OC56C(O)C(N5CC5)=CC(=O)C6(C)C4CCC23C)C1 (stereo not given)"
  Assay system: "KM12"
  GI50: "2.02 µM (inactive)"
- Compound: "COC(=O)C1=C(C(=O)OC)C2(OC(C)=O)c3ccccc3-c3ccccc3C12 (stereo not given)"
  Assay system: "KM12"
  GI50: "12.5 µM (inactive)"

List the reported GI50 of each compound below.
1. CC[N+](C)(CC)CC(C)(C)C(=O)/C=C/c1ccc(/C=C/C(=O)C(C)(C)C[N+](C)(CC)CC)cc1
2. O=NC1c2cccc3cccc(c23)C1N=O (stereo not given)
3. O=C(NC(CS)C(=O)O)c1c2ccccc2nc2ccccc12 (stereo not given)
4. Cc1cc2nc(O)c(C(C)C(=O)c3ccc(Cl)cc3)nc2cc1C (stereo not given)
5. CCc1cn(C2CC(CO)C(CO)S2)c(=O)[nH]c1=O (stereo not given)
6. O=[N+]([O-])c1ccc(NC2OCC(O)C(O)C2O)cc1 (stereo not given)

Reply:
["> 100 µM (inactive)", "3.89 µM (inactive)", "24.8 µM (inactive)", "29.8 µM (inactive)", "> 100 µM (inactive)", "> 100 µM (inactive)"]

List the reported GI50 of each compound below.
1. CN1CCN(c2ccc(-n3cc(C(=O)O)c(=O)c4cc(F)c(N5CCN(C)CC5)cc43)nc2)CC1
2. CCC1NC(=O)C(NC(=O)c2ncccc2O)C(C)OC(=O)C(c2ccccc2)NC(=O)C2CC(=O)CCN2C(=O)C(Cc2ccccc2)N(C)C(=O)C2CCCN2C1=O (stereo not given)
3. O=C1C(Br)=CC2(C=C1Br)CCNC1=C2C(=O)c2ncccc2C1=O
4. Cc1ccc(S(=O)(=O)OI(O)CC(F)(F)F)cc1
5. CC(C)CCC1(CCN)C(=O)NC(=O)NC1=O
6. O=[N+]([O-])c1ccc(/C=N/n2c(CO)nc3ccccc32)o1

Reply:
1. 33.6 µM (inactive)
2. > 100 µM (inactive)
3. 1.25 µM (inactive)
4. > 100 µM (inactive)
5. > 100 µM (inactive)
6. 3.11 µM (inactive)
